Biological target: Mas-related G-protein coupled receptor member X1 (Homo sapiens) (UniProt Q96LB2)
Sequence (Q96LB2 whole entry, looked up): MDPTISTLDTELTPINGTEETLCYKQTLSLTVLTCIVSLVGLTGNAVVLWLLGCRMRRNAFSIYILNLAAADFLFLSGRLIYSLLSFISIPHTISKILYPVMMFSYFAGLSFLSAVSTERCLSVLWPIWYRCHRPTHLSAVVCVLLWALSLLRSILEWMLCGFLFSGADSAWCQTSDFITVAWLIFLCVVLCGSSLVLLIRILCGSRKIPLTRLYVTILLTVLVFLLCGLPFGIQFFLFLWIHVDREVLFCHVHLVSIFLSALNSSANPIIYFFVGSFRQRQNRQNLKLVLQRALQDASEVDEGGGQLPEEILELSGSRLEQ
Experiment: blockade of BAM8-22-evoked MrgX1 calcium response – HEK293 cells, Fluo-4 calcium flux, primary screen (AID 588676)
Settings: Fluo-4, BAM8-22 antagonism, at 10 µM
Screen size: about 310,000 compounds; about 3,900 (1.3%) were called active.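 Rule for the calls: active = calcium-response B-score plate-corrected more than 3 library SD below zero, starting fluorescence within 5 deviations, no agonist response on first addition; inactive = the rest.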 Many of the other results were omitted from the sample, so actives are more common in it than they were.
Possible outcomes: 1 = active, 0 = inactive

- COMPOUND: "FC(F)(F)c1nc2ccccc2nc1N/N=C/c1ccc(Cl)cc1"
  LABEL_VALUE: 0
- COMPOUND: "Clc1ccc(C=NC23CN4CN(CN(C4)C2)C3)cc1"
  LABEL_VALUE: 1
- COMPOUND: "CCCCC(=O)Nc1ccc2c(c1)C(=O)NC2=O"
  LABEL_VALUE: 1
- COMPOUND: "COc1ccc(C(=O)N2CCC(C(=O)Nc3cccc(C)c3)CC2)cc1OC"
  LABEL_VALUE: 0
- COMPOUND: "CCCCN(C)CCC(=O)Nc1ccc(Cl)cc1"
  LABEL_VALUE: 0
- COMPOUND: "CCOc1ccc(NC(=O)COc2ccc(C(=O)NC3CCCc4ccccc43)cc2OC)cc1 (stereo unspecified)"
  LABEL_VALUE: 0
- COMPOUND: "Cc1ccc(-c2nn(C(C)(C)C)c3ncnc(N)c23)cc1"
  LABEL_VALUE: 1
- COMPOUND: "CCc1cc2cc(OC)ccc2nc1SCC(=O)Nc1cc(OC)c(OC)cc1C(=O)O"
  LABEL_VALUE: 0
- COMPOUND: "CCOc1ccc(NC(=O)COc2ccc(C(=O)N3CCC(C(N)=O)CC3)cc2OC)cc1"
  LABEL_VALUE: 1
- COMPOUND: "Cc1ccc(Cl)c(OCC(=O)N(C)CC(=O)Nc2ccc(N3CCOCC3)cc2)c1"
  LABEL_VALUE: 0
- COMPOUND: "COc1ccc(-c2cc(C(=O)N(C)Cc3ccc(OC)c(OC)c3OC)c3ccccc3n2)cc1OC"
  LABEL_VALUE: 0

Hello, the source for this data is PubChem BioAssay AID588676, in case you need it.
